tested on: NF-κ B activation; test: Inhibitory activity of NF-κB activation, luciferase reporter assay under TNF-α stimulation in HepG2; assay type: cell-based, human; conditions: Drug concentration at 10 μg/mL; HepG2, TNF-α 40 ng/ml, 4 hours
Would you mind labelling by Inhibitory rate against NF-κB activation (%)? At or over 90% is condition met, under is condition not met.

Worked set:
1. Cc1ccc(S(=O)(=O)c2ccc(Cl)cc2NC(=O)c2cc(Cl)ccc2O)cc1 | condition met
2. CC(C)(C)CC(C)(C)c1ccc(O)c(C(=O)Nc2cc(C(F)(F)F)cc(C(F)(F)F)c2)c1 | condition met
3. CC(C)(C)c1cc(C(=O)Nc2cc(C(F)(F)F)cc(C(F)(F)F)c2)c(O)c(C(C)(C)C)c1 | condition not met
4. COc1ccc(Oc2ccccc2)cc1NC(=O)c1cc(Cl)ccc1O | condition met
5. O=C(Nc1cc(C(F)(F)F)cc(C(F)(F)F)c1)c1cc(F)ccc1O | condition met

Shifting focus to the molecule that follows.
Prompt: Does the reported Inhibitory rate against NF-κB activation (%) for `O=C(Nc1cc(C(F)(F)F)ccc1Cl)c1cc([N+](=O)[O-])ccc1O` fall at or above the 90% mark?
Completion: condition met

====

test system: AP-1 activation; test: Inhibition against AP-1 activation by TNF α stimulation, luciferase reporter assay in HeLa; type: cell-based, human; settings: Drug concentration at 1 μg/mL, TNF-α 40 ng/ml, 4 hours
Each entry gets no if its Inhibitory rate against AP-1 activation(%) stays under 40%, and yes if its Inhibitory rate against AP-1 activation(%) is 40% or above.

The following molecules have reported results that may help.
1. O=C(Nc1cc(Cl)cc(Cl)c1)c1cc(Cl)ccc1O | no
2. O=C(Nc1cc(C(F)(F)F)cc(C(F)(F)F)c1)c1cc(Cl)ccc1O | yes
3. O=C(Nc1cc(C(F)(F)F)cc(C(F)(F)F)c1)c1cc(-c2ccccc2)ccc1O | no
4. O=C(Nc1cc(C(F)(F)F)cc(C(F)(F)F)c1)c1cc(Br)ccc1O | yes

Kindly review the next molecule as well.
Prompt: Exam item: decide whether the reported Inhibitory rate against AP-1 activation(%) for `O=C(Nc1cc(C(F)(F)F)cc(C(F)(F)F)c1)c1cc(Cl)cnc1O` is at least 40%.
Completion: no

====

Recorded Inhibitory rate against NF-κB activation (%) by entry
tested on: NF-κ B activation; assay: Inhibitory activity of NF-κB activation, luciferase reporter assay under TNF-α stimulation in HepG2; format: cell-based, human; settings: Drug concentration at 10 μg/mL; HepG2, TNF-α 40 ng/ml, 4 hours

Entry `CCOC(=O)c1sc(NC(=O)c2cc(Br)ccc2O)nc1C(F)(F)F` — recorded Inhibitory rate against NF-κB activation (%) = 96.5%

Measured Inhibitory rate against NF-κB activation (%), `O=C(Nc1cc(C(F)(F)F)cc(C(F)(F)F)c1)c1cc(N=Nc2ccc(S(=O)(=O)Nc3ccccn3)cc2)ccc1O` : 89.1%

Consider `O=C(Nc1cc(Cl)cc(Cl)c1)c1cc(Br)ccc1O` . Its measured Inhibitory rate against NF-κB activation (%) is 92.8%

response.value for `CC(C)CCOc1ccc(OCCC(C)C)c(NC(=O)c2cc(Cl)ccc2O)c1` (field: Inhibitory rate against NF-κB activation (%)) = 97.9%

The compound `O=C(Nc1cc(C(F)(F)F)ccc1Br)c1cc(Cl)ccc1O` showed Inhibitory rate against NF-κB activation (%) equal to 96.2%

====

system: NF-κ B activation; assay: Inhibitory activity of NF-κB activation, luciferase reporter assay under TNF-α stimulation in HepG2; type: cell-based, human; settings: Drug concentration at 1 μg/mL; HepG2, TNF-α 40 ng/ml, 4 hours
Entries and their Inhibitory rate against NF-κB activation (%) values follow.
Your answer should be a plain number; it is taken to be in %.

Reported Inhibitory rate against NF-κB activation (%) ( O=C(Nc1cc(C(F)(F)F)cc(C(F)(F)F)c1)c1cccc(Cl)c1O [compound 64] ) = 84.9

Please fill in: Inhibitory rate against NF-κB activation (%) reported for Cc1ccc(Oc2ccc(C(F)(F)F)cc2NC(=O)c2cc(Cl)ccc2O)cc1 [compound 117] = 92.8

Note to self: Inhibitory rate against NF-κB activation (%) recorded for O=C(Nc1cc(C(F)(F)F)cc(C(F)(F)F)c1)c1cc(N=Nc2ccc(S(=O)(=O)Nc3ccccn3)cc2)ccc1O [compound 49] was 19.4

Form: compound = O=C(Nc1cc(C(F)(F)F)cc(C(F)(F)F)c1)c1cc(/C=C/c2ccccc2)ccc1O [compound 19] ; Inhibitory rate against NF-κB activation (%) = 95.5

Memo: O=C(Nc1ccc(Cl)nc1)c1cc(Cl)ccc1O [compound 240] , reported Inhibitory rate against NF-κB activation (%): 14.3

Reported Inhibitory rate against NF-κB activation (%) ( Cc1ccc(C(=O)Nc2cc(C(F)(F)F)cc(C(F)(F)F)c2)c(O)c1 [compound 53] ) = 93.3

# Inhibitory rate against NF-κB activation (%) (compound: O=C(Nc1cc(Cl)cc(Cl)c1)c1cc(Br)cc(Br)c1O [compound 128] ) is 91.4

Entry CC(C)(C)c1ccc(C(C)(C)C)c(NC(=O)c2cc(Cl)ccc2O)c1 [compound 134] ; Inhibitory rate against NF-κB activation (%) = 89.1

====

Here, each record is paired with measured Inhibitory rate against AP-1 activation(%) data.
tested on: AP-1 activation; assay: Inhibition against AP-1 activation by TNF α stimulation, luciferase reporter assay in HeLa; format: cell-based, human; settings: Drug concentration at 10 μg/mL, TNF-α 40 ng/ml, 4 hours
Dear colleague, please return just the value in %, with no unit written.

Known Inhibitory rate against AP-1 activation(%) results, listed for orientation:
1. O=C(Nc1cc(C(F)(F)F)cc(C(F)(F)F)c1)c1cc(/C=C/c2ccccc2)ccc1O | 33.9
2. O=C(Nc1cc(C(F)(F)F)cc(C(F)(F)F)c1)c1cc(Cl)ccc1O | 89.1
3. O=C(Nc1cc(C(F)(F)F)cc(C(F)(F)F)c1)c1cc(-c2ccccc2)ccc1O | 60.9

Kindly note: AP-1 activation, `O=C(Nc1cc(Cl)cc(Cl)c1)c1cc(F)ccc1O` , Inhibitory rate against AP-1 activation(%) value reported: 67.7

====

// Inhibitory rate against NF-κB activation (%) lookup, one value per entry
tested on: NF-κ B activation; assay: Inhibitory activity of NF-κB activation, luciferase reporter assay under TNF-α stimulation in HepG2; assay type: cell-based, human; conditions: Drug concentration at 10 μg/mL; HepG2, TNF-α 40 ng/ml, 4 hours
Answer format: numeric, % implied, no suffix.

1) O=C(Nc1cc(C(F)(F)F)ccc1N1CCOCC1)c1cc(Cl)ccc1O | 92.1
2) CC(C)(C)c1cc(NC(=O)c2cc(Cl)cnc2O)cc(C(C)(C)C)c1 | 63.8
3) CCOC(=O)c1sc(NC(=O)c2cc(-c3ccc(F)cc3)ccc2O)nc1-c1ccccc1 | 85.8
4) CCOC(=O)c1sc(NC(=O)c2cc(-n3cccc3)ccc2O)nc1-c1ccccc1 | 90.1
5) O=C(Nc1cc(Br)cc(C(F)(F)F)c1)c1cc(Cl)ccc1O | 99.2
6) COc1ccc(-c2ccccc2)cc1NC(=O)c1cc(Cl)ccc1O | 97.9
7) O=C(Nc1nc(-c2ccccc2)cs1)c1cc(Br)ccc1O | 78.8
8) CC(=O)Oc1ccc(Cl)cc1C(=O)Nc1cc(C(C)(C)C)cc(C(C)(C)C)c1 | 94.7
9) CC(O)c1ccc(O)c(C(=O)Nc2cc(C(F)(F)F)cc(C(F)(F)F)c2)c1 (centres unmarked) | 96.0
10) O=C(Nc1cc(Cl)cc(Cl)c1)c1cc(Cl)ccc1O | 96.8

Query `O=C(Nc1cc(C(F)(F)F)cc(C(F)(F)F)c1)c1cc(-c2cccs2)ccc1O` on NF-κ B activation; Inhibitory rate against NF-κB activation (%) returned: 97.8

Note to self: Inhibitory rate against NF-κB activation (%) of `CC(C)NC(=O)c1sc(NC(=O)c2cc(Br)ccc2O)nc1-c1ccccc1` with NF-κ B activation was 91.3

The compound `CC(=O)Oc1ccc(Cl)cc1C(=O)Nc1cc(C(F)(F)F)ccc1C(F)(F)F` on NF-κ B activation: Inhibitory rate against NF-κB activation (%) was 96.8

====

tested on: NF-κ B activation; experiment: Inhibitory activity of NF-κB activation, luciferase reporter assay under TNF-α stimulation in HepG2; format: cell-based, human; conditions: Drug concentration at 10 μg/mL; HepG2, TNF-α 40 ng/ml, 4 hours
Everything with Inhibitory rate against NF-κB activation (%) lower than 90% is False; everything else, including exactly 90%, is True.

1) CCOC(=O)c1c(NC(=O)c2cc(Cl)ccc2O)sc2c1CCCC2 | False
2) CCNC(=O)c1sc(NC(=O)c2cc(Br)ccc2O)nc1-c1ccccc1 | False
3) Cc1nc(NC(=O)c2cc(Br)ccc2O)sc1C | False
4) CC(=O)Oc1ccccc1C(=O)Nc1cc(Cl)cc(Cl)c1 | True

// next entry
Prompt: Quick check: does `O=C(Nc1cc(C(F)(F)F)cc(C(F)(F)F)c1)c1cc(NC(=S)Nc2ccccc2)ccc1O` have Inhibitory rate against NF-κB activation (%) greater than or equal to 90%?
Completion: True
